src = patent US20230365566A1

// reported AC50 for each item listed
System: HTT mRNA alternative junction (AJ)
Experiment Notes: Splicing RT-qPCR assay, increase of HTT alternative junction (AJ) mRNA
Type: cell-based
Reported Conditions: A673 or K562 cells, 24 hours compound treatment, concentration having 50% response in AJ increase

{"columns": ["Compound", "AC50"],
 "data": [
  ["Cc1cn2cc(NC(=O)c3ccc(C4CCNCC4)c4cn(C)nc34)cc(Cl)c2n1", "100 to 1000 nM"],
  ["Cc1cn2cc(NC(=O)c3ccc(N4CCN5CCCC5C4)c4cn(C)nc34)cc(F)c2n1 (centres unmarked)", "100 to 1000 nM"],
  ["Cc1cn2cc(NC(=O)c3ccc(N(C)C4CC(C)(C)NC(C)(C)C4)c4cn(C)nc34)cc(F)c2n1", "> 10000 nM"],
  ["Cc1cn2cc(NC(=O)c3ccc(N(C)C4CCN(C)CC4)c4cn(C)nc34)cc(F)c2n1", "100 to 1000 nM"],
  ["CCC1CN(c2ccc(C(=O)Nc3cc(F)c4nc(C)cn4c3)c3nn(C)cc23)CCN1 (centres unmarked)", "100 to 1000 nM"],
  ["Cc1cn2cc(NC(=O)c3ccc(N4CCC(NC(C)(C)C)C4)c4cc(C)oc34)cc(F)c2n1 (centres unmarked)", "1000 to 10000 nM"],
  ["Cc1cn2cc(NC(=O)c3ccc(N4CCNCC4)c4cc(C)oc34)cc(C)c2n1", "1000 to 10000 nM"],
  ["Cc1cn2cc(NC(=O)c3ccc(C4CC(C)(C)NC(C)(C)C4)c4cc(C)oc34)cc(F)c2n1", "> 10000 nM"],
  ["Cc1nc2c(F)cc(NC(=O)c3ccc(N4CCNCC4)c4cn(C)nc34)cc2o1", "100 to 1000 nM"],
  ["Cc1cn2cc(NC(=O)c3ccc(N4CCC(N(C)C)CC4)c4cn(C)nc34)cc(C)c2n1", "100 to 1000 nM"],
  ["Cc1cn2nc(-c3ccc(C(=O)NC4CCNCC4)c4nn(C)cc34)cc(C)c2n1", "1000 to 10000 nM"]
]}

====

Test system: HTT mRNA alternative junction (AJ)
Experiment Notes: Splicing RT-qPCR assay, increase of HTT alternative junction (AJ) mRNA
Format: cell-based
Reported Conditions: A673 or K562 cells, 24 hours compound treatment, concentration having 50% response in AJ increase

{"columns": ["Compound", "AC50"],
 "data": [
  ["Cc1cn2cc(NC(=O)c3ccc(N4CCNCC4)c4cc(C)oc34)cc(F)c2n1", "1 to 10 µM"],
  ["Cc1cn2cc(NC(=O)c3ccc(N4CCNCC4)c4cn(C)nc34)cc(Cl)c2n1", "0.1 to 1 µM"],
  ["Cc1cn2cc(NC(=O)c3ccc(N(C)C4CC(C)(C)NC(C)(C)C4)c4cc(C)oc34)cc(F)c2n1", "> 10 µM"],
  ["Cc1cn2cc(NC(=O)c3ccc(N4CCC(N(C)C)C4)c4cn(C)nc34)cc(Cl)c2n1 (stereo not shown)", "1 to 10 µM"],
  ["CCN1CCC(c2ccc(C(=O)Nc3cc(F)c4nc(C)cn4c3)c3nn(C)cc23)CC1", "0.1 to 1 µM"],
  ["Cc1cn2cc(NC(=O)c3ccc(N4CCNC5(CC5)C4)c4cc(C)oc34)cc(F)c2n1", "1 to 10 µM"],
  ["Cc1cn2cc(NC(=O)c3ccc(N4CCN5CCCC5C4)c4cc(C)oc34)cc(F)c2n1 (stereo not shown)", "0.1 to 1 µM"],
  ["Cc1cn2cc(NC(=O)c3ccc(N4C[C@H]5CC[C@@H](C4)N5)c4cc(C)oc34)cc(F)c2n1", "1 to 10 µM"],
  ["Cc1cn2cc(NC(=O)c3ccc(N4CCNC(C)C4)c4cn(C)nc34)cc(F)c2n1 (stereo not shown)", "0.1 to 1 µM"],
  ["Cc1cn2cc(NC(=O)c3ccc(N4CCNCC4)c4cc(C)oc34)cc(Cl)c2n1", "1 to 10 µM"],
  ["Cc1cn2cc(NC(=O)c3ccc(N4CCNCC4)c4cc(C)oc34)c(C)cc2n1", "> 10 µM"],
  ["CCn1cc2c(N3CCNCC3)ccc(C(=O)Nc3cc(Cl)c4nc(C)cn4c3)c2n1", "> 10 µM"],
  ["Cc1cn2cc(NC(=O)c3ccc(C4CCN(C)CC4)c4cn(C)nc34)cc(F)c2n1", "0.1 to 1 µM"],
  ["Cc1cn2cc(NC(=O)c3ccc(N4CCC(NC(C)(C)C)C4)c4cn(C)nc34)cc(F)c2n1 (stereo not shown)", "> 10 µM"],
  ["Cc1cn2cc(NC(=O)c3ccc(N4CCNCC4)c4cn(C)nc34)nc2c(C)n1", "> 10 µM"],
  ["Cc1cn2cc(NC(=O)c3ccc(N4CCNC(C)C4)c4cc(C)oc34)cc(F)c2n1 (stereo not shown)", "1 to 10 µM"],
  ["Cc1cn2nc(NC(=O)c3ccc(N4CCNCC4)c4cc(C)oc34)cc(C)c2n1", "1 to 10 µM"],
  ["Cc1cn2nc(-c3ccc(C(=O)NC4CCNCC4)c4oc(C)cc34)cc(C)c2n1", "1 to 10 µM"],
  ["Cc1cn2cc(NC(=O)c3ccc(C4CCNCC4)c4cn(C)nc34)cc(F)c2n1", "0.1 to 1 µM"],
  ["Cc1cn2cc(NC(=O)c3ccc(N4CCC(N5CCCC5)C4)c4cc(C)oc34)cc(F)c2n1 (stereo not shown)", "1 to 10 µM"],
  ["CCN1CCC(c2ccc(C(=O)Nc3cc(F)c4nc(C)cn4c3)c3oc(C)cc23)CC1", "1 to 10 µM"],
  ["Cc1cn2cc(NC(=O)c3ccc(N4CCC(N(C)C)C4)c4cn(C)nc34)cc(F)c2n1 (stereo not shown)", "0.1 to 1 µM"],
  ["Cc1cn2cc(NC(=O)c3ccc(N4CCNC(C)(C)C4)c4cn(C)nc34)cc(F)c2n1", "0.1 to 1 µM"],
  ["Cc1cn2nc(NC(=O)c3ccc(N4CCNCC4)c4cc(C)oc34)nc2c(C)n1", "> 10 µM"],
  ["Cc1cn2cc(NC(=O)c3ccc(N4CCN(C)C(C)C4)c4cn(C)nc34)cc(F)c2n1 (stereo not shown)", "0.1 to 1 µM"],
  ["Cc1cn2cc(NC(=O)c3ccc(N4CCNCC4)c4cn(C)nc34)cc(C(F)(F)F)c2n1", "1 to 10 µM"],
  ["Cc1cn2cc(NC(=O)c3ccc(N4CC(C)(C)NC(C)(C)C4)c4cn(C)nc34)cc(F)c2n1", "> 10 µM"],
  ["Cc1cn2cc(-c3ccc(C(=O)NC4CCNCC4)c4nn(C)cc34)cc(F)c2n1", "1 to 10 µM"]
]}
